Biological target: UniProt P43071
Sequence (P43071 whole entry): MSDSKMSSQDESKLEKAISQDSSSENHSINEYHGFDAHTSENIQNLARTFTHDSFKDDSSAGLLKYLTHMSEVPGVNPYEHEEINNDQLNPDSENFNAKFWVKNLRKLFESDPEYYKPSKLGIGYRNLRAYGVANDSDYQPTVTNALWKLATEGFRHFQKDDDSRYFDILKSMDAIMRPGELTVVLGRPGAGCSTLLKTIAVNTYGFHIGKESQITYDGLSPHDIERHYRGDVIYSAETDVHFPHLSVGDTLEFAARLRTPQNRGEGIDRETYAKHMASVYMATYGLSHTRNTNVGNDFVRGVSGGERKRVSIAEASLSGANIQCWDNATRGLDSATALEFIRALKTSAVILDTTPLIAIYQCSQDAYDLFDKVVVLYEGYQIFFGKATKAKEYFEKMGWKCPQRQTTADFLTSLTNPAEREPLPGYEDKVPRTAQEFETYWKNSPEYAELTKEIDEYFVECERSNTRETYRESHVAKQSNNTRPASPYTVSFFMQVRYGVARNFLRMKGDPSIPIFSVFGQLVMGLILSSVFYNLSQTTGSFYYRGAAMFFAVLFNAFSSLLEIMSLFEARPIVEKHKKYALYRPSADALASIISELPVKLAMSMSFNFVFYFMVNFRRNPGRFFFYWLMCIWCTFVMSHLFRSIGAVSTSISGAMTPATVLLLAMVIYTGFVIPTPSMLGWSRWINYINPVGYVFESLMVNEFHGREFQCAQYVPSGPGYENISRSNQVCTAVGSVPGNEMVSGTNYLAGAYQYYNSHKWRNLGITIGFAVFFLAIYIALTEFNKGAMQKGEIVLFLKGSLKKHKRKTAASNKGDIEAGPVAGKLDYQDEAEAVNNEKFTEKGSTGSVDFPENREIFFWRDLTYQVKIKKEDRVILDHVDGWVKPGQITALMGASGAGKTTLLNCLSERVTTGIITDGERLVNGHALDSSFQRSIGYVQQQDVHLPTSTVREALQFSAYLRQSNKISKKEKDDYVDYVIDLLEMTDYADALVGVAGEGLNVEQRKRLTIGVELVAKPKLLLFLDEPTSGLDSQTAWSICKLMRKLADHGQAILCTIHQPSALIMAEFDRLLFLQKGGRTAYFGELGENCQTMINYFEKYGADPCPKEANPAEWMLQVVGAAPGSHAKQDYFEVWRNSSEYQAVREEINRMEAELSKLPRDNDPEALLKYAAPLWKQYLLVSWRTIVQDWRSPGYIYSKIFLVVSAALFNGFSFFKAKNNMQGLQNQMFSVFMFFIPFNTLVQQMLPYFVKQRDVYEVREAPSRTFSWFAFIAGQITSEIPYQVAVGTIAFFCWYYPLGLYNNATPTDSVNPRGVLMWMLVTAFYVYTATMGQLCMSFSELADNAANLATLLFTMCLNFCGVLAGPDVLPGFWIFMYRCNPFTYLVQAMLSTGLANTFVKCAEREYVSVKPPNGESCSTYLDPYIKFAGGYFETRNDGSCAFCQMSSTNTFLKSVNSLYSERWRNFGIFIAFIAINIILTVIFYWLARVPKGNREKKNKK
Test: cell-based
Format: cell-based, C. albicans
Conditions: read-out: FEPIhalf (concentration needed to reduce activity of efflux pump by 50%); YEM-1 pCDRI; fluconazole fixed at FLUhalf 5.6
observationType: IC50 (nM)
I only need the number, in nM, no unit after it.

CCCCC(C)C(=O)OC1[C@@H](O)[C@]2(C[C@@H]3C[C@@H](C/C=C(\C)C[C@@H](C)/C=C/C=C4\CO[C@@H]5[C@H](OC)C(C)=CC(C(=O)O3)[C@]45O)O2)O[C@H](C)[C@H]1C (stereo partly drawn) [Compound 9, Milbemycin α6] | 2910
CO[C@@H]1C(C)=C[C@H]2C(=O)O[C@H]3C[C@@H](C/C=C(\C)C[C@@H](C)/C=C/C=C4\CO[C@H]1[C@@]42O)O[C@]1(C3)C[C@H](O)[C@H](C)[C@@H](/C(C)=C/C(C)C)O1 [Compound 16, LL-F2849λ (nemedectinλ)] | 1600

// below: IC50 requested for another molecule
Can you share its IC50? I mean this molecule: CO[C@H]1C[C@@]2(O)/C(CO)=C/C=C/[C@H](C)C/C(C)=C/C[C@@H]3C[C@@H](C[C@]4(CC[C@H](C)[C@@H](C)O4)O3)OC(=O)[C@@H]2C=C1C [Compound 6, Milbemycin β1]
918
